# EXPERIMENTAL_PROTOCOL: Acute toxicity in mice
# Design: species or system non-linebred white mice
# CONDITION: mouse, in vivo, iv, by mouth or intravenously, 14 days observation
# Method: Acute toxicity was determined on non-linebred white mice weighing 18-20 g. The claimed compounds were prepared in a range of concentrations: 1500, 700, 500, 100, 20 and 5 µg/kg. Five animals were used to study each specific concentration of a compound. The preparation was administered once a day by mouth of intravenously. The observation period was 14 days On days 1, 8 and 15 the animals in every group were weighed. For a control we used animals who received the emulsion without the test compounds. […]
ENDPOINT: LD50 at 336 h (mg/kg)
Field: numeric (mg/kg). Do not append units.

query: Value lookup for LD50 at 336 h; key = O=C1NC(=S)NC(=O)C1C(c1ccc([N+](=O)[O-])cc1)C1C(=O)NC(=S)NC1=O
result: 1000
